System: Ba/F3 KIT mutant cells
Experiment: Ba/F3 mutant KIT Cell Proliferation Assays (resazurin)
Assay type: cell-based
Settings: Mus musculus, BaF3; Ba/F3 KIT exon11del-V654A mutant cell proliferation; read-out: exon11del-V654A IC50
RECORDED ENDPOINT: IC50

Consider the worked cases shown below.
LINE NOTATION	ASSAY SYSTEM	IC50
COCCOc1cc(F)c2c(Nc3ccc(NC(=O)CC(=O)N4CCC[C@@H]4C(C)C)cc3)ncnc2c1	Ba/F3 KIT mutant cells	10 to 100 nM
COCCOc1cc(F)c2c(Nc3ccc(NC(=O)CC(=O)NCCN(C)C)cc3)ncnc2c1	Ba/F3 KIT mutant cells	> 1000 nM
CN(C)CCOc1cc(F)c2c(Nc3ccc(NC(=O)NCCC(C)(C)F)cc3)ncnc2c1	Ba/F3 KIT mutant cells	≤ 10 nM

Look up IC50 for this molecule: CO[C@@H](C)COc1cc(F)c2c(Nc3ccc(NC(=O)NCCC(C)(C)F)cc3)ncnc2c1 10 to 100 nM

Request: COCCOc1cc(F)c2c(Nc3ccc(NC(=O)CC(=O)NCCN4CCOCC4)cc3)ncnc2c1 100 to 1000 nM

And for COCCOc1cc(OC)c2c(Nc3ccc(NC(=O)CC(=O)NC4CCCC4)cc3)ncnc2c1 ? 100 to 1000 nM

Consider next the molecule COCCOc1cc(F)c2c(Nc3ccc(NC(=O)CC(=O)N4CCCCC4)cc3)ncnc2c1 in the same way. > 1000 nM

Could you do the same for COCCOc1cc(F)c2c(Nc3ccc(NC(=O)CC(=O)NC4CC4)cc3)ncnc2c1 , please? 100 to 1000 nM

---

Tested on: Ba/F3 KIT mutant cells
Assay: Ba/F3 mutant KIT Cell Proliferation Assays (resazurin)
Assay type: cell-based
Conditions: Mus musculus, BaF3; Ba/F3 KIT AYdup mutant cell proliferation; read-out: AYdup IC50
Excerpt: Ba/F3 KIT Mutant Cell Line Transduction and Expansion Several different KIT cDNA encoding various primary and secondary mutations were cloned into a pLV(Exp]-CMV>(cDNA):IRES:puro vector. These vectors were constructed and packaged by VectorBuilder. […] A serial dilution of test compound was dispensed into a 384-well black clear bottom plate (Corning, Corning, NY). […] Plates were read on a Synergy2 reader (Biotek, Winooski, VT) using an excitation of 540 nm and an emission of 600 nm. […]
RECORDED ENDPOINT: IC50

A selection of reference data follows.
LINE NOTATION	RESULT
COCCOc1cc(F)c2c(Nc3ccc(NC(=O)C4(C(=O)NCC(C)(C)C)CC4)cc3)ncnc2c1	0.01 to 0.1 µM
COCCOc1cc(F)c2c(Nc3ccc(NC(=O)CC(=O)NCC4(C)CCC4)cc3)ncnc2c1	≤ 0.01 µM
COCCOc1cc(F)c2c(Nc3ccc(NC(=O)CNC(=O)CC(C)(C)C)cc3)ncnc2c1	≤ 0.01 µM
COCCOc1cc(F)c2c(Nc3ccc(NC(=O)NCCC4CCOCC4)cc3)ncnc2c1	≤ 0.01 µM
COCCOc1cc(F)c2c(Nc3ccc(NC(=O)CC(=O)NCC(C)(C)C)cc3)ncnc2c1	0.01 to 0.1 µM

We now examine a further molecule.
What measured IC50 goes with COCCOc1cc(F)c2c(Nc3ccc(NC(=O)NCCC(C)(C)F)cc3)ncnc2c1 ? ≤ 0.01 µM
